# system.under.test: Adenosine receptor A1 (Homo sapiens, UniProt P30542)
# Sequence (P30542 whole entry): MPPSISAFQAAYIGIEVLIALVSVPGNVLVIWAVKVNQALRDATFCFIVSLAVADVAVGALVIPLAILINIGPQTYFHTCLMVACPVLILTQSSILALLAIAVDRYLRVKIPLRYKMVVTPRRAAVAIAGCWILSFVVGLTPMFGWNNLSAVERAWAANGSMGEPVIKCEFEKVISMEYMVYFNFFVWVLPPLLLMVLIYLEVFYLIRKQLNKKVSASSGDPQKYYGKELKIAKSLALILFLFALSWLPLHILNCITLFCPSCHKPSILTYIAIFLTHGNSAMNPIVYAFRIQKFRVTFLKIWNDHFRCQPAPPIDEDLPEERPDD
measured.attribute: Kd (nM)

[[record]]
compound = "Fc1ccc(-c2nn3ccccc3c2-c2ccncc2)cc1 [GW434756X]"
system_under_test = "Adenosine receptor A1 (Homo sapiens, UniProt P30542)"
measured_attribute = "Kd"
assay_result = 6.05

[[record]]
compound = "Nc1nsc(-c2ccccc2)n1"
system_under_test = "Adenosine receptor A1 (Homo sapiens, UniProt P30542)"
measured_attribute = "Kd"
assay_result = 122000

[[record]]
compound = "O=C1NC(=O)C(c2cccc(Cl)c2)=C1Nc1ccc(O)c(Cl)c1"
system_under_test = "Adenosine receptor A1 (Homo sapiens, UniProt P30542)"
measured_attribute = "Kd"
assay_result = 2210


The measured values listed here are drawn from ChEMBL document CHEMBL5126601.
